Measured inhibition at 1 µM accompanies every entry in the list below.
- test target: Aurora-A(h) (Homo sapiens)
- Construct: purchased Millipore (KinaseProfiler service); also Reaction Biology Corp. (Kinase Hotspot)
- Sequence (O14965 whole entry): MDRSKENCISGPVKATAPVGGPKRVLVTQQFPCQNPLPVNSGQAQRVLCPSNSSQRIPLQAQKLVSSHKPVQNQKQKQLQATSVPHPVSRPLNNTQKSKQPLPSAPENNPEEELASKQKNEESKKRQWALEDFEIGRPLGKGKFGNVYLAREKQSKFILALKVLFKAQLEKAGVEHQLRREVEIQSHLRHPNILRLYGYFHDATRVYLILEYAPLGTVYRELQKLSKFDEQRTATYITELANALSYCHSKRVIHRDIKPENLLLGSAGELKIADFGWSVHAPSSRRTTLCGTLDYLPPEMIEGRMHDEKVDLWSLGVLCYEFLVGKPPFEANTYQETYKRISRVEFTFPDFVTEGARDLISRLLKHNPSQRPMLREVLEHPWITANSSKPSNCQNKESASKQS
- run description: Aurora-A kinase inhibition assay (KinaseProfiler / Kinase Hotspot)
- Format: biochemical
- condition parameters: compound at 1 μM
- Description: This example illustrated c-Src kinase, Aurora-A kinase, Flt3 kinase, Ret kinase and TrkA Kinase Assays of selected Compounds from this invention (referred to Daniele Fancelli et al, J. Med. Chem., 2006, 49 (24), pp 7247-7251). […] Also Kinase Hotspot^SM kinase assay was used to test the compounds for IC50 or % inhibitions (Reaction Biology Corp.). Inhibitor IC50 values were determined by titration of compound at the optimal kinase concentration (Kinase EC50).

>>> result("C[C@@H](Nc1nc(Nc2cc(-c3ccco3)[nH]n2)nc(N2CCN(C)CC2)n1)c1ccc(F)cc1 [Example 18]")
"< 50%"
>>> result("CN1CCN(c2nc(Nc3cc(-c4ccco4)[nH]n3)nc(N(C)Cc3ccc(F)cc3)n2)CC1 [Example 10]")
"50 to 90%"
>>> result("Cc1cnc(Nc2nc(NCc3ccccc3)nc(N3CCN(C)CC3)n2)s1 [Example 7]")
"50 to 90%"

Under Aurora-A(h) (Homo sapiens): inhibition at 1 µM value of CC(C)c1cnc(Nc2nc(N[C@H](C)c3ccc(F)cc3)nc(N3CCN(C)CC3)n2)s1 [Example 4] ?
< 50%

Under Aurora-A(h) (Homo sapiens): inhibition at 1 µM value of CC(C)c1cnc(Nc2nc(N[C@@H](C)c3ccc(F)cc3)nc(N3CCN(C)CC3)n2)s1 [Example 3] ?
50 to 90%

Under Aurora-A(h) (Homo sapiens): inhibition at 1 µM value of C[C@H](Nc1nc(Nc2cc(-c3ccco3)[nH]n2)nc(N2CCN(C)CC2)n1)c1ccc(F)cc1 [Example 21] ?
< 50%

Under Aurora-A(h) (Homo sapiens): inhibition at 1 µM value of Cc1cnc(Nc2nc(NCc3ccc4c(c3)OCO4)nc(N3CCN(C)CC3)n2)s1 [Example 6] ?
50 to 90%

Under Aurora-A(h) (Homo sapiens): inhibition at 1 µM value of CN1CCN(c2nc(Nc3cc(-c4ccco4)[nH]n3)nc(SCc3ccc(F)cc3)n2)CC1 [Example 11] ?
50 to 90%

Under Aurora-A(h) (Homo sapiens): inhibition at 1 µM value of Cc1cnc(Nc2nc(NCc3ccc(F)cc3)nc(N3CCN(C)CC3)n2)s1 [Example 8] ?
50 to 90%

Under Aurora-A(h) (Homo sapiens): inhibition at 1 µM value of CN1CCN(c2nc(Nc3cc(-c4ccco4)[nH]n3)nc(SCc3ccccc3)n2)CC1 [Example 15] ?
< 50%

Under Aurora-A(h) (Homo sapiens): inhibition at 1 µM value of CC(Nc1nc(Nc2cc(C3CC3)[nH]n2)nc(N2CCN(C)CC2)n1)c1ccc(F)cc1 (stereo not drawn) [Example 20] ?
50 to 90%

Under Aurora-A(h) (Homo sapiens): inhibition at 1 µM value of CN1CCN(c2nc(NCc3ccc(F)cc3)nc(Nc3cc(-c4ccco4)[nH]n3)n2)CC1 [Example 9] ?
< 50%
